Tested on: Escherichia coli TOP10;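 also: peptides expressed intracellularly from a pBAD plasmid library in pooled LB shake-flask culture, induced with 0.3% L-arabinose, DNA abundance read by NGS, three biological replicates, DESeq2 with apeglm shrinkage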
Assay: shrunken log2 fold change of peptide-encoding DNA abundance (4.5 h post-induction vs induction); higher = less antimicrobial activity (less host growth inhibition)
Details: time post-induction: 4.5 h; library: site-saturation at positions 5, 18, 19, 20
experimental.readout: shrunken log2 fold change
Lab note: jot the number down without any unit.

Record `RRIRKRPPRLPRPRPRPTYFPRP` , field shrunken log2 fold change: -0.817

The recorded shrunken log2 fold change for `RRIRTRPPRLPRPRPRPCGIPRP` is 0.0859

Entry `RRIRIRPPRLPRPRPRPQIFPRP` ; shrunken log2 fold change = 0.0997

shrunken log2 fold change in this record for `RRIRVRPPRLPRPRPRPARCPRP` : 0.205

The sequence identified as `RRIRGRPPRLPRPRPRPLMKPRP` registered its shrunken log2 fold change at 0.635

Documented shrunken log2 fold change of `RRIRARPPRLPRPRPRPLFMPRP` : -0.166

So, `RRIRHRPPRLPRPRPRPQLCPRP` ? Its shrunken log2 fold change was 0.0716

The sequence listed as `RRIRERPPRLPRPRPRPEDRPRP` has a reported shrunken log2 fold change of -0.0523

shrunken log2 fold change reading for `RRIRHRPPRLPRPRPRPGVFPRP` : 0.0667

Record summary for `RRIRERPPRLPRPRPRPPDSPRP` : reported shrunken log2 fold change = -0.303

response.value for `RRIRERPPRLPRPRPRPCFNPRP` (field: shrunken log2 fold change) = -0.324

// field: shrunken log2 fold change; key: `RRIRIRPPRLPRPRPRPEYRPRP` ; value = -1.12

For record `RRIRQRPPRLPRPRPRPNRLPRP` the listed shrunken log2 fold change is 0.0179

`RRIRFRPPRLPRPRPRPWVLPRP` yielded shrunken log2 fold change of -0.0735

Entry `RRIRGRPPRLPRPRPRPPKVPRP` , shrunken log2 fold change reported as 0.762

For `RRIRRRPPRLPRPRPRPITCPRP` the sequence record lists shrunken log2 fold change as -0.307

Looking up `RRIRIRPPRLPRPRPRPITRPRP` , I see its shrunken log2 fold change listed as 0.0378

Documented shrunken log2 fold change of `RRIRPRPPRLPRPRPRPNDIPRP` : -0.632

Noted for `RRIRTRPPRLPRPRPRPGINPRP` : its shrunken log2 fold change reads -0.324

Record `RRIRYRPPRLPRPRPRPFGEPRP` . Reported shrunken log2 fold change: -0.00973

Quick note, shrunken log2 fold change for `RRIRHRPPRLPRPRPRPIIMPRP` landed at -0.029

In plain terms, `RRIRCRPPRLPRPRPRPWRNPRP` has a documented shrunken log2 fold change of -0.157

Entry `RRIRARPPRLPRPRPRPIPVPRP` ; shrunken log2 fold change = 0.161

sequence `RRIRGRPPRLPRPRPRPKKVPRP` , shrunken log2 fold change observed: 0.942

Briefly, shrunken log2 fold change measured for `RRIRKRPPRLPRPRPRPNVYPRP` : -0.0771

# shrunken log2 fold change (sequence: `RRIRMRPPRLPRPRPRPMPPPRP` ) is 1.07

Input `RRIRHRPPRLPRPRPRPHVHPRP` . Output shrunken log2 fold change: -0.201

Lab note: measured shrunken log2 fold change of `RRIRTRPPRLPRPRPRPFKGPRP` was -0.264

The measured shrunken log2 fold change associated with `RRIRTRPPRLPRPRPRPSVDPRP` reads -0.108

// shrunken log2 fold change value for `RRIRKRPPRLPRPRPRPNCAPRP` : 0.873

# shrunken log2 fold change (sequence: `RRIRWRPPRLPRPRPRPGMPPRP` ) is 0.294

shrunken log2 fold change in this record for `RRIRWRPPRLPRPRPRPARIPRP` : 0.176

`RRIRKRPPRLPRPRPRPQMVPRP` yielded shrunken log2 fold change of -0.0031

Input `RRIRERPPRLPRPRPRPYWPPRP` . Output shrunken log2 fold change: -0.249

get_value(item= `RRIRGRPPRLPRPRPRPNMTPRP` , readout=shrunken log2 fold change) returns 1.63

For `RRIRRRPPRLPRPRPRPELAPRP` the sequence record lists shrunken log2 fold change as 0.927

get_value(item= `RRIRGRPPRLPRPRPRPEKMPRP` , readout=shrunken log2 fold change) returns 0.59

Value of measured shrunken log2 fold change for the entry `RRIRQRPPRLPRPRPRPLVEPRP` : -0.0628

So, `RRIRNRPPRLPRPRPRPQCDPRP` ? Its shrunken log2 fold change was -0.282

What the record says about `RRIRRRPPRLPRPRPRPTFTPRP` : shrunken log2 fold change is 0.128

Quick note, shrunken log2 fold change for `RRIRGRPPRLPRPRPRPLYEPRP` landed at 0.913

Record `RRIRTRPPRLPRPRPRPVSPPRP` , field shrunken log2 fold change: -0.194

Lab note: measured shrunken log2 fold change of `RRIRHRPPRLPRPRPRPMGSPRP` was -0.0537

Short answer for `RRIRQRPPRLPRPRPRPATTPRP` : shrunken log2 fold change was 0.351

shrunken log2 fold change reading for `RRIRQRPPRLPRPRPRPGEEPRP` : 0.0331

According to the records, this sequence `RRIRKRPPRLPRPRPRPLDQPRP` displays shrunken log2 fold change of 0.257

The recorded shrunken log2 fold change for `RRIRIRPPRLPRPRPRPANPPRP` is -0.29

Lab book: shrunken log2 fold change of `RRIRFRPPRLPRPRPRPTYFPRP` noted as -0.175

Quick note, shrunken log2 fold change for `RRIRWRPPRLPRPRPRPQYMPRP` landed at -0.164

The sequence listed as `RRIRARPPRLPRPRPRPHYSPRP` shows shrunken log2 fold change equal to 0.141

Recorded result, `RRIRKRPPRLPRPRPRPSQVPRP` , shrunken log2 fold change: 0.31

Data point: `RRIRWRPPRLPRPRPRPYVWPRP` ; shrunken log2 fold change = -0.0228

Quick note, shrunken log2 fold change for `RRIRERPPRLPRPRPRPVLIPRP` landed at -0.153

Memo: `RRIRNRPPRLPRPRPRPGFHPRP` , reported shrunken log2 fold change: -0.0379

Query `RRIRCRPPRLPRPRPRPIANPRP` yields shrunken log2 fold change of 0.0422

// field: shrunken log2 fold change; key: `RRIRYRPPRLPRPRPRPDSVPRP` ; value = -0.338

The sequence identified as `RRIRMRPPRLPRPRPRPHWGPRP` registered its shrunken log2 fold change at 0.12

Memo: `RRIRERPPRLPRPRPRPALKPRP` , reported shrunken log2 fold change: 0.4

Just so you know, measured shrunken log2 fold change for `RRIRWRPPRLPRPRPRPDAPPRP` came out at 0.558

Note to self: shrunken log2 fold change recorded for `RRIRCRPPRLPRPRPRPHRLPRP` was -0.227

shrunken log2 fold change in this record for `RRIRERPPRLPRPRPRPKLPPRP` : 0.0983

The reported shrunken log2 fold change of the sequence `RRIRDRPPRLPRPRPRPINMPRP` was 0.00272

Entry under test: `RRIRERPPRLPRPRPRPPGDPRP` . Its shrunken log2 fold change was 0.619
